# assayed.system: BCRP (Homo sapiens (Human))
# Sequence (Q9UNQ0 whole entry, species assumed): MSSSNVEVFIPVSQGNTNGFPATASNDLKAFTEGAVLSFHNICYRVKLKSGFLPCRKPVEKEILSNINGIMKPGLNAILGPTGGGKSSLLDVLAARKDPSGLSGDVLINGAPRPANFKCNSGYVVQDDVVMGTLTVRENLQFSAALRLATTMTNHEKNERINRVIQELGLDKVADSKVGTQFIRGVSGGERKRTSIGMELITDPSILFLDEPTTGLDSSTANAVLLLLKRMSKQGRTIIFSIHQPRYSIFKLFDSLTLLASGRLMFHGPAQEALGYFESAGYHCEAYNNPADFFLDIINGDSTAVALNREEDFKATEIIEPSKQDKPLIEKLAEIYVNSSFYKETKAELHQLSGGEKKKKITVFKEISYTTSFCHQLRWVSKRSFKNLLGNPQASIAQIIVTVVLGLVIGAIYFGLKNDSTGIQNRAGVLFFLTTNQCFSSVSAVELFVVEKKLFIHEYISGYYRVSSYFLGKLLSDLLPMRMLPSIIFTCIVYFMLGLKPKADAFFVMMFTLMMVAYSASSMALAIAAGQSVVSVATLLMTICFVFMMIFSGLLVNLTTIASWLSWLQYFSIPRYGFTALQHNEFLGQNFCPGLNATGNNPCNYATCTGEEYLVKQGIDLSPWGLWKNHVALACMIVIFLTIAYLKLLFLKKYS
# assay.name: BCRP MDCKII permeability assay: efflux ratio
# run.conditions: dog
Classify as follows. Reported efflux ratio at 2 h, 1 µM greater than or equal to 4: T. Reported efflux ratio at 2 h, 1 µM below: F.

| molecule | group |
| --- | --- |
| CCCS(=O)(=O)Nc1cc(F)c(F)c(Oc2ccc3ncn(C)c(=O)c3c2C)c1Cl | F |
| CCCS(=O)(=O)Nc1ncc(F)c(Nc2ccc3ncn(C)c(=O)c3c2C)c1F | T |

In: Decide: is the reported value of efflux ratio at 2 h, 1 µM for "Cc1c(Oc2cc(F)cc(NS(=O)(=O)CCCF)c2F)ccc2ncn(C)c(=O)c12" equal to or greater than 4?
Out: T

In: Decide: is the reported value of efflux ratio at 2 h, 1 µM for "CCCS(=O)(=O)Nc1ccc(F)c(Nc2ccc3ncn(C)c(=O)c3c2C)c1F" equal to or greater than 4?
Out: F

In: Decide: is the reported value of efflux ratio at 2 h, 1 µM for Cn1cnc2ccc(Nc3c(F)ccc(NS(=O)(=O)CCCF)c3Cl)c(Cl)c2c1=O [WO 2012/118492 Ex. 37, reference compound] equal to or greater than 4?
Out: T

In: Decide: is the reported value of efflux ratio at 2 h, 1 µM for "CCCS(=O)(=O)Nc1cc(F)c(F)c(Nc2ccc3ncn(C)c(=O)c3c2C)c1F" equal to or greater than 4?
Out: T

In: Decide: is the reported value of efflux ratio at 2 h, 1 µM for "Cc1c(Oc2cccc(NS(=O)(=O)CCCF)c2Cl)ccc2ncn(C)c(=O)c12" equal to or greater than 4?
Out: F

In: Decide: is the reported value of efflux ratio at 2 h, 1 µM for "Cc1c(Nc2c(F)c(F)cc(NS(=O)(=O)CCCF)c2Cl)ccc2ncn(C)c(=O)c12" equal to or greater than 4?
Out: T

In: Decide: is the reported value of efflux ratio at 2 h, 1 µM for "CCCS(=O)(=O)Nc1ncc(Cl)c(Nc2ccc3ncn(C)c(=O)c3c2C)c1Cl" equal to or greater than 4?
Out: T
